Form field: growth (one value per entry).
test system: ACHN renal; test: NCI-60 one-dose screen, 48 h (100 = growth as untreated, 0 = no growth, -100 = all killed); conditions: 10 µM unless noted
Compounds without any hit were thinned out: in the full panel of roughly 83,000, 20% have a hit.

{"columns": ["molecule", "unit_text", "growth"],
 "data": [
  ["CCOC(=O)C1=C(C)NC(SCc2nnc(-c3ccc(Cl)cc3)o2)=NC1c1ccc(Cl)cc1 (stereo not given)", "%", 64.1],
  ["CC(CN1CCN(CCOCCO)CC1)CN1c2ccccc2Sc2ccc(Cl)cc21 (stereo not given)", "%", 69.4],
  ["C=CCn1c(SCC(=O)Nc2ccc(/C(C)=N\\O)cc2)nnc1-c1cc(-c2ccccc2)nc2ccccc12", "%", 38.4],
  ["COc1cc2nccc(Oc3ccc(NC(=O)C4(C(=O)Nc5ccc(F)cc5)CC4)cc3)c2cc1Oc1ccc(N)cn1", "%", 18.6],
  ["COc1ccc(C(=O)C(CN(C)C)c2ccccc2)cc1 (stereo not given)", "%", -71.4]
]}

---

Tested on: SF-539 CNS
Assay: NCI-60 one-dose screen, 48 h
Conditions: 10 µM unless noted
Protocol: Cells are grown in 96 well plates and exposed to the test compound for 48 hours. Compounds are tested at a single concentration, which is 10^-5 M for most compounds. The reported endpoint is percent growth (GI% or GIPRCNT), where numbers from 0 - 100% represent growth inhibition, and numbers from -100% - 0 represent cell death. For example, a value of 40 represents 60% growth inhibition. A value of 0 means no net growth occurred over the course of the experiment. […]
The panel holds about 83,000 compounds, 20% with a hit somewhere; the sample as a whole holds those more often. Calls of active or inactive are those of the source. Rule for the calls: active = growth percent below 10; inactive = the rest.
Possible outcomes: active, inactive

{"columns": ["compound", "label_value"],
 "data": [
  ["COc1ccc(NC(=O)c2ccc(C(F)(F)F)nc2Nc2ccc(Cl)cc2C)cc1Cl", "inactive"],
  ["COc1ccc2nc(C)cc(Nc3ccccc3O)c2c1", "active"],
  ["C=C(C)C1CCC2(C(=O)O)CCC3(C)C(CCC4C5(C)CCC(O)C(C)(C)C5CCC43C)C12 (stereo not drawn)", "active"]
]}

---

Tested on: LOX IMVI melanoma
Test: NCI-60 one-dose screen, 48 h
Settings: 10 µM unless noted
Description: Growth inhibition of the LOX IMVI human tumor cell line is measured as a screen for anti-cancer activity. Cells are grown in 96 well plates and exposed to the test compound for 48 hours. Compounds are tested at a single concentration, which is 10^-5 M for most compounds. The reported endpoint is percent growth (GI% or GIPRCNT), where numbers from 0 - 100% represent growth inhibition, and numbers from -100% - 0 represent cell death. For example, a value of 40 represents 60% growth inhibition. […]
This is part of a sample that, as a whole, favours compounds with a hit. Of some 83,000 tested, about 20% had one in any assay. Active and inactive are the calls of the source. Rule for the calls: active = growth percent below 10; inactive = the rest.
Possible outcomes: TRUE (active), FALSE (inactive)

{"columns": ["compound", "study_target", "label_value"],
 "data": [
  ["F", "LOX IMVI melanoma", "TRUE"],
  ["O=C(C(Br)C(Br)c1ccccc1)C(Br)C(Br)c1ccccc1 (stereo unspecified)", "LOX IMVI melanoma", "TRUE"],
  ["CC(C)(C)c1ccc(Cn2c(-c3nonc3N)nc3ccccc32)cc1", "LOX IMVI melanoma", "FALSE"],
  ["CCOC(=O)C(Nc1ccccc1)C(=O)OCC", "LOX IMVI melanoma", "FALSE"],
  ["CC1(C)CC[C@]2(C(=O)N3CCNCC3)CC[C@]3(C)C(=CC[C@@H]4[C@@]5(C)CCC(=O)C(C)(C)[C@@H]5CC[C@]43C)[C@@H]2C1", "LOX IMVI melanoma", "FALSE"],
  ["COc1c(B(O)O)cccc1-c1nc2c(F)cc3n[nH]c(C)c3c2c2c1CCCC2", "LOX IMVI melanoma", "FALSE"],
  ["CCOC(=O)Nc1ccc2nc(-c3cscn3)[nH]c2c1", "LOX IMVI melanoma", "FALSE"],
  ["Cc1cc(C#Cc2ccccc2)ccc1-n1c(/C=C/c2ccc(F)cc2)nc2ccccc2c1=O", "LOX IMVI melanoma", "FALSE"],
  ["CCOC(=O)C1=C(C)NC(SCc2nnc(-c3ccc(Cl)cc3)o2)=NC1c1ccc(Br)cc1 (stereo unspecified)", "LOX IMVI melanoma", "FALSE"],
  ["CCCCN(CCCC)CCC(O)c1cc2ccc(C(F)(F)F)cc2c2cc(C(F)(F)F)ccc12 (stereo unspecified)", "LOX IMVI melanoma", "TRUE"],
  ["Cc1ccc(-c2nc3ccccc3c(=O)n2/N=C/c2cccc3ccccc23)cc1", "LOX IMVI melanoma", "FALSE"],
  ["CC(=O)[C@H]1CC[C@H]2[C@@H]3CC[C@H]4CC=CC[C@]4(C)[C@H]3CC[C@]12C", "LOX IMVI melanoma", "FALSE"],
  ["Cc1ccc(NC(=O)c2nc(S(C)=O)oc2-c2ccc(F)cc2)cc1Nc1nccc(-c2cccnc2)n1 (stereo unspecified)", "LOX IMVI melanoma", "TRUE"],
  ["OC(c1cc(-c2ccc(C(F)(F)F)cc2)nc(-c2ccc(C(F)(F)F)cc2)c1)C1CCCCN1 (stereo unspecified)", "LOX IMVI melanoma", "TRUE"],
  ["Nc1c(C(=O)c2ccc(Br)cc2)sc2nc3c(cc12)CCCC3", "LOX IMVI melanoma", "FALSE"],
  ["COc1ccc(Nc2ncnc3c2sc2nc(C)cc(C)c23)cc1", "LOX IMVI melanoma", "FALSE"],
  ["O=C1OC(c2ccc(-c3ccccc3)cc2)=C/C1=C/c1c(Cl)cccc1Cl", "LOX IMVI melanoma", "FALSE"],
  ["O=C(c1ccccc1)N(CCCCl)C(=O)N(CCCCl)C(=O)c1ccccc1", "LOX IMVI melanoma", "FALSE"],
  ["O=C(Oc1c(Cl)c(Cl)c(Cl)c(Cl)c1Cl)C1CCCN1C(=O)OCc1ccccc1 (stereo unspecified)", "LOX IMVI melanoma", "FALSE"],
  ["CCOc1cccc(/C=N/NC(=O)c2ccc(Nc3ccnc(C(F)(F)F)c3)cc2)c1O", "LOX IMVI melanoma", "TRUE"],
  ["Nc1nonc1-c1nc2ccccc2n1Cc1ccc(F)cc1", "LOX IMVI melanoma", "FALSE"]
]}

---

Form field: growth (one value per entry).
test system: RPMI-8226 leukemia; assay: NCI-60 one-dose screen, 48 h (100 = growth as untreated, 0 = no growth, -100 = all killed); conditions: 10 µM unless noted
The panel holds about 83,000 compounds, 20% with a hit somewhere; the sample as a whole holds those more often.

{"columns": ["molecule", "unit_text", "growth"],
 "data": [
  ["CCN(CC)CCCC(C)Nc1cnc(C(=O)Nc2cccc3ccc(OC)nc23)cn1 (stereo unspecified)", "%", 23.8],
  ["CCCCn1c(-c2ccc(F)cc2)nc2cc(OC)c(OC)cc2c1=O", "%", 40.2],
  ["O=C(c1ccccc1)N(CCCCl)C(=O)N(CCCCl)C(=O)c1ccccc1", "%", 88.1],
  ["Cc1ccc(/C=C/C(=N/N=C(N)N)c2ccccc2)cc1", "%", 11.1],
  ["COc1ccc(C2C=C(c3ccc(Cl)cc3)N=C3SC=CN32)cc1 (stereo unspecified)", "%", 94.6],
  ["CCN(CC)CCCC(C)Nc1cnc(C(=O)Nc2cc(C)cc3cccnc23)cn1 (stereo unspecified)", "%", 78]
]}

---

system: ACHN renal; test: NCI-60 one-dose screen, 48 h (100 = growth as untreated, 0 = no growth, -100 = all killed); conditions: 10 µM unless noted
The panel holds about 83,000 compounds, 20% with a hit somewhere; the sample as a whole holds those more often.

{"columns": ["compound", "growth / %"],
 "data": [
  ["NC(=O)c1noc(C(=O)c2ccccc2)c1N", 99.6],
  ["COc1ccc(-c2[nH]nc(N)c2-c2cc(OC)c(OC)c(OC)c2)cc1", 25.5],
  ["COc1ccc(/C=C/C(=O)c2ccc(NC(=O)CSc3nnc(-c4ccc(Cl)cc4)n3-c3ccccc3)cc2)cc1", 103],
  ["CC(C)NCCCCCNc1cc(O)cc2cccnc12", 102],
  ["Cc1cc(Cl)c2ccc(N(C)C)cc2n1", 97.6],
  ["CCOC(=O)C1=C(C)NC(SCc2nnc(-c3ccc(Cl)cc3)o2)=NC1c1ccc(Br)cc1 (stereo not given)", 69.7],
  ["Cc1ccc(NC(=O)c2[nH]c(SCCN(C)C)nc2-c2ccc(F)cc2)cc1C#Cc1cnc2cccnn12", -88],
  ["COc1cccc2nc(Nc3cccc(NC(=O)c4cc(N5CCOCC5)cc(C(F)(F)F)c4)c3)ccc12", 45.1],
  ["O=C1OCC2=C1C(c1ccc(Cl)c(Cl)c1)c1cc3c(cc1N2CCO)CCC3 (stereo not given)", 32.8],
  ["Nc1nc(N)c2cc(Sc3ccc(Cl)cc3)ccc2n1", 23]
]}
